Reported pIC50 against Somatostatin receptor type 4 (Homo sapiens, UniProt P31391), gathered from multiple publications, appears below.
Sequence (P31391 whole entry): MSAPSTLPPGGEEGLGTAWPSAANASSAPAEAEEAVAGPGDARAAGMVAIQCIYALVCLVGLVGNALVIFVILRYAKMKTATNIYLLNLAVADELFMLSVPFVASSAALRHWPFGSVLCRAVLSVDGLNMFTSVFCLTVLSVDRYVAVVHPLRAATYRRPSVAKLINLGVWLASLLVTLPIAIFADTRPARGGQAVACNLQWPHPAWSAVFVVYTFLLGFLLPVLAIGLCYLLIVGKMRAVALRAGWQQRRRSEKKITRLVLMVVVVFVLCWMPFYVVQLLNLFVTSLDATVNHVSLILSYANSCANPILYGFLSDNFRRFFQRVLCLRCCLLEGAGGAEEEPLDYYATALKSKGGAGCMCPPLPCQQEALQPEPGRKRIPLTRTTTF
Numbers only, as −log10 of the molar value.

Example molecules with recorded pIC50:
INSERT INTO measurements (molecule, tested_target, quantity_measured, obs_value) VALUES
  ('C[C@@H](O)[C@@H]1NC(=O)[C@H](CCCCN)NC(=O)[C@H](Cc2c[nH]c3ccccc23)NC(=O)N(C)[C@@H](C(=O)c2ccccc2)NC(=O)[C@@H](Cc2ccccc2)NC(=O)[C@@H](N)CSSC[C@@H](C(=O)O)NC(=O)[C@H](Cc2ccccc2)NC1=O (stereo in doubt)', 'Somatostatin receptor type 4 (Homo sapiens, UniProt P31391)', 'pIC50', 8.27),
  ('C[C@@H](O)[C@@H]1NC(=O)[C@H](Cc2ccccc2)NC(=O)[C@H]([C@@H](C)O)NC(=O)[C@H](CCCCN)NC(=O)[C@@H](Cc2c[nH]c3ccccc23)NC(=O)[C@H](Cc2ccccc2)NC(=O)[C@H](Cc2ccccc2)NC(=O)[C@H](CC(N)=O)NC(=O)[C@@H](N)CSSC[C@@H](C(=O)O)NC1=O', 'Somatostatin receptor type 4 (Homo sapiens, UniProt P31391)', 'pIC50', 8.85),
  ('CC(=O)N[C@@H](Cc1ccccc1)C(=O)N[C@@H]1Cc2c([nH]c3ccccc23)CN([C@@H](CCCCN)C(=O)N[C@H](C(N)=O)[C@@H](C)O)C1=O', 'Somatostatin receptor type 4 (Homo sapiens, UniProt P31391)', 'pIC50', 7.44),
  ('C[C@H](c1ccc2ccccc2c1)[C@@H]1NC(=O)[C@H](Cc2ccc(O)cc2)NC(=O)[C@H](Cc2ccccc2)NC(=O)[C@H](N)CSSC[C@@H](C(=O)O)NC(=O)[C@H](Cc2ccccc2)NC(=O)[C@H]([C@@H](C)O)NC(=O)[C@H](CCCCN)NC1=O', 'Somatostatin receptor type 4 (Homo sapiens, UniProt P31391)', 'pIC50', 8.64);

Quick request: pIC50 for each listed item, please.
1. CC(C)NCc1ccc(C[C@@H]2NC(=O)[C@@H](Cc3c[nH]c4ccccc34)NC(=O)[C@@H]3CCC(=O)NCCCCC[C@@H](NC(=O)[C@H](Cc4ccccc4)NC(=O)[C@H]([C@@H](C)O)NC2=O)C(=O)N[C@@H](CO)C(=O)N[C@H](C(=O)O)CSSC[C@H](NC(=O)[C@@H](N)Cc2ccc(O)cc2)C(=O)N[C@@H](CCCCN)C(=O)N[C@@H](Cc2ccccc2)C(=O)N3)cc1
2. C[C@@H](O)[C@@H]1NC(=O)[C@H](CCCCN)NC(=O)[C@@H](Cc2c[nH]c3ccccc23)NC(=O)[C@H](Cc2ccccc2)NC(=O)[C@@H](NC(=O)[C@H](N)Cc2ccccc2)CCCC[C@@H](C(=O)N[C@H](CO)[C@@H](C)O)NC1=O
3. C[C@@H](O)[C@@H]1NC(=O)[C@H](CCCCN)NC(=O)[C@H](Cc2c[nH]c3ccccc23)NC(=O)[C@H](Cc2ccc(O)cc2)NC(=O)[C@H](Cc2ccccc2)NC(=O)[C@@H](N)CSSC[C@@H](C(=O)O)NC(=O)[C@H](Cc2ccccc2)NC1=O

1. 7.00
2. 6.67
3. 8.89

Quick request: pIC50 for each listed item, please.
1. CC(C)[C@H](NC(=O)[C@H](CCCCN)NC(=O)[C@@H](Cc1c[nH]c2ccccc12)NC(=O)[C@H](Cc1ccc(O)cc1)NC(=O)[C@@H](Cc1ccc(Cl)cc1)NC(=O)[C@@H](N)Cc1ccc2ccccc2c1)C(=O)N[C@@H](Cc1ccccc1)C(=O)N[C@@H](Cc1ccc2ccccc2c1)C(N)=O
2. C[C@@H](O)[C@@H]1NC(=O)[C@H](CCCCN)NC(=O)[C@@H](Cc2c[nH]c3ccccc23)NC(=O)[C@H](Cc2ccc(NC(N)=O)cc2)NC(=O)[C@H](NC(=O)[C@H](Cc2ccc(Cl)cc2)NC(=O)CCOCCOCCOCCNC(=O)CN2CCN(CC(=O)O)CCN(CC(=O)O)CCN(CC(=O)O)CC2)CSSC[C@@H](C(=O)N[C@@H](Cc2ccc3ccccc3c2)C(N)=O)NC1=O
3. C[C@@H](O)[C@@H]1NC(=O)[C@H](Cc2ccccc2)NC(=O)[C@H]([C@@H](C)O)NC(=O)[C@H](CCCCN)NC(=O)[C@@H](Cc2c[nH]c3ccccc23)NC(=O)[C@H](Cc2ccccc2)NC(=O)[C@H](Cc2ccccc2)NC(=O)[C@@H](N)CSSC[C@@H](C(=O)O)NC(=O)[C@H](CO)NC1=O

1. 6.00
2. 6.14
3. 8.48

###

Reported IC50 against Somatostatin receptor type 4 (Homo sapiens), gathered from multiple publications, appears below.
One number for each entry, in nM.

INSERT INTO results (sample_smiles, quantity_measured, obs_value) VALUES
  ('NCCCCCOC[C@H]1O[C@@H](OCCc2c[nH]c3ccccc23)[C@H](OCc2cnc[nH]2)[C@@H](OCc2ccccc2)[C@@H]1OCc1cccnc1', 'IC50', 53),
  ('C[C@H](c1ccc2ccccc2c1)[C@@H]1NC(=O)[C@H](Cc2ccccc2)NC(=O)[C@@H](Cc2ccccc2)NC(=O)[C@H](N)CSSC[C@@H](C(=O)O)NC(=O)[C@H](Cc2ccc(O)cc2)NC(=O)[C@@H]([C@@H](C)O)NC(=O)[C@H](CCCCN)NC1=O', 'IC50', 9.2);

Please find the next compound below.
Query C[C@@H](O)[C@@H]1NC(=O)[C@H](CCCCN)NC(=O)[C@@H](Cc2c[nH]c3ccccc23)NC(=O)[C@H](Cc2ccccc2)NC(=O)[C@H](Cc2ccccc2)NC(=O)[C@H](CCCCN)NC(=O)[C@@H](N)CSSC[C@@H](C(=O)O)NC(=O)[C@H](Cc2ccccc2)NC1=O yields IC50 of 0.6

###

Reported IC50 against Somatostatin receptor type 4 (Homo sapiens, UniProt P31391), gathered from multiple publications, appears below.

INSERT INTO results (sample_smiles, obs_value) VALUES
  ('C[C@@H](O)[C@@H]1NC(=O)[C@H](CCCCN)NC(=O)[C@@H](Cc2ccc(NC(N)=O)cc2)NC(=O)[C@H](Cc2ccc(NC(=O)[C@@H]3CC(=O)NC(=O)N3)cc2)NC(=O)[C@H](NC(=O)[C@@H](N)Cc2ccc([N+](=O)[O-])cc2)CSSC[C@@H](C(=O)N[C@@H](Cc2ccc3ccccc3c2)C(N)=O)NC1=O', '> 1 µM');

Quick request: IC50 for each listed item, please.
1. CC(C)[C@@H]1NC(=O)[C@H](CCCCN)NC(=O)[C@@H](Cc2c[nH]c3ccccc23)NC(=O)[C@H](Cc2ccc(O)cc2)NC(=O)[C@H](C)N(C)C(=O)[C@H](Cc2ccccc2)N(C)C1=O
2. CC(=O)N[C@@H](Cc1ccccc1)C(=O)N[C@]1(C)Cc2c([nH]c3ccccc23)CN([C@@H](CCCCN)C(=O)N[C@H](C(N)=O)[C@@H](C)O)C1=O
3. CC(C)NCc1ccc(C[C@@H]2NC(=O)[C@H](N(C)C(=O)c3ccc4ccccc4c3)NC(=O)[C@H](Cc3ccccc3)NC(=O)[C@H](Cc3ccccc3)NC(=O)[C@H](CCCCN)NC(=O)[C@@H](N)CSSC[C@@H](C(=O)O)NC(=O)[C@H](CO)NC(=O)[C@H]([C@@H](C)O)NC(=O)[C@H](Cc3ccc(O)cc3)NC(=O)[C@H]([C@@H](C)O)NC2=O)cc1

1. > 1 µM
2. > 1 µM
3. 0.562 µM

###

Reported pIC50 against Somatostatin receptor type 4 (Homo sapiens, UniProt P31391), gathered from multiple publications, appears below.
pIC50: −log10 of the molar value.

INSERT INTO measurements (sample_smiles, quantity_measured, obs_value) VALUES
  ('CC(C)NCc1ccc(C[C@@H]2NC(=O)[C@@H](Cc3c[nH]c4ccccc34)NC(=O)[C@@H]3CCC(=O)NCCCCCC[C@@H](NC(=O)[C@H](Cc4ccccc4)NC(=O)[C@H]([C@@H](C)O)NC2=O)C(=O)N[C@@H](CO)C(=O)N[C@H](C(=O)O)CSSC[C@H](NC(=O)[C@@H](N)Cc2ccc(O)cc2)C(=O)N[C@@H](CCCCN)C(=O)N[C@@H](Cc2ccccc2)C(=O)N3)cc1', 'pIC50', '< 6.00'),
  ('CC(C)[C@@H]1NC(=O)[C@H](CCCCN)NC(=O)[C@@H](Cc2c[nH]c3ccccc23)N(C)C(=O)[C@H](Cc2ccc(O)cc2)NC(=O)[C@H](C)N(C)C(=O)[C@H](Cc2ccccc2)N(C)C1=O', 'pIC50', '< 6.00'),
  ('CN[C@H]1CSSC[C@@H](C(=O)O)NC(=O)[C@H](CO)NC(=O)[C@H]([C@@H](C)O)NC(=O)[C@H](Cc2ccccc2)NC(=O)[C@H]([C@@H](C)O)NC(=O)[C@H](Cc2ccc(CNC(C)C)cc2)NC(=O)[C@@H](Cc2ccc3ccccc3c2)NC(=O)[C@H](Cc2ccccc2)NC(=O)[C@H](Cc2ccccc2)NC(=O)[C@H](CCCCN)NC1=O', 'pIC50', '< 6.00'),
  ('CC(C)NCc1ccc(C[C@@H]2NC(=O)[C@@H](Cc3c[nH]c4ccccc34)NC(=O)[C@@H]3CCC(=O)NCCC[C@H](NC(=O)[C@H](Cc4ccccc4)NC(=O)[C@H]([C@@H](C)O)NC2=O)C(=O)N[C@@H](CO)C(=O)N[C@H](C(=O)O)CSSC[C@H](NC(=O)[C@@H](N)Cc2ccc(O)cc2)C(=O)N[C@@H](CCCCN)C(=O)N[C@@H](Cc2ccccc2)C(=O)N3)cc1', 'pIC50', '< 6.00'),
  ('CC(C)NCc1ccc(C[C@@H]2NC(=O)[C@@H](Cc3c[nH]c4ccccc34)NC(=O)[C@H](Cc3ccccc3)NC(=O)[C@H]3CCC(=O)NCC[C@@H](NC(=O)[C@H]([C@@H](C)O)NC2=O)C(=O)N[C@@H]([C@@H](C)O)C(=O)N[C@@H](CO)C(=O)N[C@H](C(=O)O)CSSC[C@H](NC(=O)[C@@H](N)Cc2ccc(O)cc2)C(=O)N[C@@H](CCCCN)C(=O)N3)cc1', 'pIC50', '< 6.00'),
  ('CC(C)[C@H](NC(=O)[C@H](CCCCN)NC(=O)[C@@H](Cc1c[nH]c2ccccc12)NC(=O)[C@H](Cc1ccc(O)cc1)NC(=O)[C@@H](Cc1ccc(Cl)cc1)NC(=O)[C@H](N)Cc1ccc2ccccc2c1)C(=O)N[C@@H](Cc1ccccc1)C(=O)N[C@@H](Cc1ccc2ccccc2c1)C(N)=O', 'pIC50', 6.00),
  ('CC(C)NCc1ccc(C[C@@H]2NC(=O)[C@@H](Cc3ccc4ccccc4c3)NC(=O)[C@H](Cc3ccccc3)N(C)C(=O)[C@H](Cc3ccccc3)NC(=O)[C@H](CCCCN)NC(=O)[C@@H](N)CSSC[C@@H](C(=O)O)NC(=O)[C@H](CO)NC(=O)[C@H]([C@@H](C)O)NC(=O)[C@H](Cc3ccccc3)NC(=O)[C@H]([C@@H](C)O)NC2=O)cc1', 'pIC50', '< 6.00'),
  ('CC(C)NCc1ccc(C[C@@H]2NC(=O)[C@@H](Cc3c[nH]c4ccccc34)NC(=O)[C@@H]3CC(=O)NC[C@H](NC(=O)[C@H](Cc4ccccc4)NC(=O)[C@H]([C@@H](C)O)NC2=O)C(=O)N[C@@H](CO)C(=O)N[C@H](C(=O)O)CSSC[C@H](NC(=O)[C@@H](N)Cc2ccc(O)cc2)C(=O)N[C@@H](CCCCN)C(=O)N[C@@H](Cc2ccccc2)C(=O)N3)cc1', 'pIC50', '< 6.00');

Please find the next compound below.
Query CC(C)NCc1ccc(C[C@@H]2NC(=O)[C@@H](Cc3cn(Cc4ccccc4)cn3)NC(=O)[C@H](Cc3ccccc3)NC(=O)[C@H](Cc3ccccc3)NC(=O)[C@H](CCCCN)NC(=O)[C@@H](N)CSSC[C@@H](C(=O)O)NC(=O)[C@H](CO)NC(=O)[C@H]([C@@H](C)O)NC(=O)[C@H](Cc3ccccc3)NC(=O)[C@H]([C@@H](C)O)NC2=O)cc1 yields pIC50 of < 5.00
